Measured Ki values are reported for all entries that follow.
- TARGET OF ASSAY: active hMMP-9(cat)_His6 (UniProt P14780 107-449)
- Sequence (P14780 107-449): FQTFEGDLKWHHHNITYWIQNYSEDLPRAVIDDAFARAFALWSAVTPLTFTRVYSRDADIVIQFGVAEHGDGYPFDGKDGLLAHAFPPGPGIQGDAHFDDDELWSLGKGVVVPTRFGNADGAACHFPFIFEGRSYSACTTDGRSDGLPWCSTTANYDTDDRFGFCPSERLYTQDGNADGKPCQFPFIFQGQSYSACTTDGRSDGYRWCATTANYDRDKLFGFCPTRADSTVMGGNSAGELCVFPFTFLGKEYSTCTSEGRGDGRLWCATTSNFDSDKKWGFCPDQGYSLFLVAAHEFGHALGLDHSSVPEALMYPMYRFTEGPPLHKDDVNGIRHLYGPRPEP
- ASSAY REMARKS: enzyme inhibition; substrate peptide
Please give a number only; it is taken to be in nM.

{"BINDER": "active MMP-9-binding peptide M91005 (designed binder) GSGMKETAAAKFERQHMDSPDLGTDDDDKAMADIGSANSDPQFGLFSKYRTPNCRKRGGPSCQMSYNPVCGSDMSTYANECTLCMKIREGGHNIKIIRNGPCGASAAA", "OUTCOME MEASURE": "Ki", "EXPERIMENTAL VALUE": 1.4}
{"BINDER": "active MMP-9-binding peptide M91011 (designed binder) GSGMKETAAAKFERQHMDSPDLGTDDDDKAMADIGSANSDPQFGLFSKYRTPNCMMYKYAQCSHKSQPVCGSDMSTYANECTLCMKIREGGHNIKIIRNGPCGASAAA", "OUTCOME MEASURE": "Ki", "EXPERIMENTAL VALUE": 1.6}
{"BINDER": "active MMP-9-binding peptide M91001 (designed binder) GSGMKETAAAKFERQHMDSPDLGTDDDDKAMADIGSANSDPQFGLFSKYRTPNCQRGIGPSCQMSYKPVCGSDMSTYANECTLCMKIREGGHNIKIIRNGPCGASAAA", "OUTCOME MEASURE": "Ki", "EXPERIMENTAL VALUE": 2.6}

// moving on: another record for Ki
State the recorded Ki for this entry: active MMP-9-binding peptide M91010 (designed binder) GSGMKETAAAKFERQHMDSPDLGTDDDDKAMADIGSANSDPQFGLFSKYRTPNCRKVGEPACQMSFNPVCGSDMSTYANECTLCMKIREGGHNIKIIRNGPCGASAAA
1.2
